- Test system: Soybean (Glycine max)
- Protocol description: Upland foliar application test, crop injury soybean
- Format: in vivo
- Details: foliar application at stage of 2-3 leaves, 50 g ai/a, emulsion, 40th day after spray
Measurement name: Crop injury Soybean (Glycine max) (%)
Write the value in % as a bare number.

Examples with answers:
COc1cc(OC)nc(Oc2ccccc2C(OC(C)C)OC(C)C)n1 = 0
CCOC(OCC)c1ccccc1Oc1nc(OC)cc(OC)n1 [Comp. Comp'd D, reference compound] = 35
COC(=O)c1ccccc1Oc1nc(OC)cc(OC)n1 [Comp. Comp'd A, reference compound] = 100
CCCCCCOC(OCCCCCC)c1ccccc1Oc1nc(OC)cc(OC)n1 = 0
CCCCOC(OCCCC)c1ccccc1Oc1nc(OC)cc(OC)n1 = 0
COc1cc(OC)nc(Oc2ccccc2C=O)n1 [Comp. Comp'd B, reference compound] = 100
CCCCCCCCOC(OCCCCCCCC)c1ccccc1Oc1nc(OC)cc(OC)n1 = 0

Now turn to the next compound.
Q: Can you share its Crop injury Soybean (Glycine max)? I mean this compound: CCCOC(OCCC)c1ccccc1Oc1nc(OC)cc(OC)n1
Result: 0
